- System: ZIKV
- measurement protocol: ZIKV antiviral assay
- Type: cell-based
- test conditions: Zika virus, read-out: ZIKV (EC50 μM)
quantity: EC50 (µM)
Provide only the numeric value, understood in µM.

QUERY: Please give measured EC50 of the following entry: O=c1nc(NO)ccn1[C@@H]1O[C@H](CO)[C@H](O)C1O (stereo partly shown) [drawing 106]
RESULT: 4.02

---

- Tested on: Astrocytes
- test conditions: 10 uM
quantity: Cell Viability 10 uM

QUERY: GET Cell Viability 10 uM | system: Astrocytes | item: CCCCCCCNC(=O)ONc1ccn([C@@H]2O[C@H](CO)[C@H](O)C2O)c(=O)n1 (stereo partly shown) [drawing 95]
RESULT: 98% ± 12% (n = 3)

QUERY: GET Cell Viability 10 uM | system: Astrocytes | item: CCCCCCCOC(=O)ONc1ccn([C@@H]2O[C@H](CO)[C@H](O)C2O)c(=O)n1 (stereo partly shown) [drawing 92]
RESULT: 99% ± 9% (n = 3)

QUERY: GET Cell Viability 10 uM | system: Astrocytes | item: CC(C)OC(=O)[C@H](C)NP(=O)(OC[C@H]1O[C@@H](n2ccc(NO)nc2=O)C(O)[C@H]1O)Oc1ccccc1 (stereo partly shown) [drawing 93]
RESULT: 102% ± 16% (n = 3)

QUERY: GET Cell Viability 10 uM | system: Astrocytes | item: O=c1nc(NO)ccn1[C@@H]1O[C@H](CO)[C@H](O)C1O (stereo partly shown) [drawing 91]
RESULT: 98% ± 12% (n = 3)

---

Exercise: for every item that follows, state its recorded Cell Viability 50 uM.
- Tested on: VERO
- measurement protocol: Cell viability, VERO (MERV screen)
- Format: cell-based
- test conditions: 50 uM

QUERY: Please give measured Cell Viability 50 uM of the following entry: CCCCCCCNC(=O)ONc1ccn([C@@H]2O[C@H](CO)[C@H](O)C2O)c(=O)n1 (stereo partly shown) [drawing 100]
RESULT: 91% ± 39% (n = 4)

QUERY: Please give measured Cell Viability 50 uM of the following entry: O=c1nc(NO)ccn1[C@@H]1O[C@H](CO)[C@H](O)C1O (stereo partly shown) [drawing 96]
RESULT: 47% ± 3% (n = 4)

QUERY: Please give measured Cell Viability 50 uM of the following entry: CCCCCCCOC(=O)ONc1ccn([C@@H]2O[C@H](CO)[C@H](O)C2O)c(=O)n1 (stereo partly shown) [drawing 97]
RESULT: 58% ± 2% (n = 4)

QUERY: Please give measured Cell Viability 50 uM of the following entry: CC(C)OC(=O)[C@H](C)NP(=O)(OC[C@H]1O[C@@H](n2ccc(NO)nc2=O)C(O)[C@H]1O)Oc1ccccc1 (stereo partly shown) [drawing 98]
RESULT: 102% ± 36% (n = 4)

---

Exercise: for every item that follows, state its recorded CC50.
- measurement protocol: Cytotoxicity in HG23 cells (Norovirus screen)
- Assay type: cell-based
- test conditions: human

QUERY: Please give measured CC50 of the following entry: O=c1nc(NO)ccn1[C@@H]1O[C@H](CO)[C@H](O)C1O (some centres unmarked) [drawing 76]
RESULT: > 100 µg/mL

QUERY: Please give measured CC50 of the following entry: CC1(O)[C@@H](O)[C@@H](CO)O[C@H]1n1ccc(NO)nc1=O (some centres unmarked)
RESULT: > 100 µg/mL
